System: LPS (TLR4)-induced signaling in human monocytes (primary CD14+)
procedure-text: LPS (TLR4)-induced signaling, western blot
Format: cell-based
experimental-parameters: 20 min pretreatment, 15 min activation with 100 ng/ml LPS, western blot
measurement-label: formation of p-IKK, p-ERK and p-p38 induced by LPS

[
  {
    "compound": "CCCCCCCCCCCCCCCCCCCCOCC(COP(=O)([O-])OCC[n+]1ccccc1)OCCCCC(=O)O (stereo not shown)",
    "assay-target": "LPS (TLR4)-induced signaling in human monocytes (primary CD14+)",
    "result": "inhibit"
  },
  {
    "compound": "CCCCCCCCCCCCCCCCOCC(COP(=O)([O-])OCC[n+]1ccccc1)OCCCCC(=O)O (stereo not shown)",
    "assay-target": "LPS (TLR4)-induced signaling in human monocytes (primary CD14+)",
    "result": "inhibit"
  },
  {
    "compound": "CCCCCCCCCCCCCCCCOCC(COP(=O)([O-])OCC[N+](C)(C)C)OCCCCC(=O)O (stereo not shown) [VB-201, reference compound]",
    "assay-target": "LPS (TLR4)-induced signaling in human monocytes (primary CD14+)",
    "result": "inhibit"
  }
]

###

System: human monocytes (primary CD14+)
procedure-text: Chemokine-induced cell migration trans-well assay
Type: cell-based
experimental-parameters: RANTES 100 ng/ml and MCP-1 50 ng/ml, 2-4 hours, FACS count
measurement-label: chemokine-induced migration of human monocytes

[
  {
    "compound": "CCCCCCCCCCCCCCCCOCC(COP(=O)([O-])OCC[N+](C)(C)C)OCCCCC(=O)O (stereo not shown) [VB-201, reference compound]",
    "result": "inhibit"
  },
  {
    "compound": "CCCCCCCCCCCCCCCCOCC(COP(=O)([O-])OCC[n+]1ccccc1)OCCCCC(=O)O (stereo not shown) [VB-701]",
    "result": "inhibit"
  },
  {
    "compound": "CCCCCCCCCCCCCCCCCCCCOCC(COP(=O)([O-])OCC[n+]1ccccc1)OCCCCC(=O)O (stereo not shown) [VB-702]",
    "result": "inhibit"
  }
]
